Source: patent US20220177587A1

So I've got a bunch of molecules here, and I need their Fold Increase over WT CD80-IgV-Fe values.
# Tested system: CD28 (Homo sapiens, UniProt P10747)
# Measurement notes: Jurkat/IL2 + CHO/OKT3 +/- PD-L1 reporter assay: PD-L1-dependent CD28 costimulation
# Assay type: cell-based
# Set-up: host or cells: Jurkat cells expressing an IL-2-luciferase reporter
# Study conditions: Table E12; Jurkat/IL2 + CHO/OKT3/PD-L1; 5.0 nM
Give bare numbers.

Please review the entries below; each comes with its answer.
Molecule: E35D/M47V (protein) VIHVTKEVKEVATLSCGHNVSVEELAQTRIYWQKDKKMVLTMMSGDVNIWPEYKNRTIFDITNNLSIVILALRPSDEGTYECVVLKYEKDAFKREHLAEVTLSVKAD
Value type: Fold Increase over WT CD80-IgV-Fe
Observed measurement: 3.4
--
Molecule: Q27H/E35D/M47I (protein) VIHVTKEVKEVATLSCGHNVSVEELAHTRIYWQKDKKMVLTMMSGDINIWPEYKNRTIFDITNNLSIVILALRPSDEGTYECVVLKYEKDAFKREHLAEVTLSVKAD
Value type: Fold Increase over WT CD80-IgV-Fe
Observed measurement: 4.6
--
Molecule: H18Y/E35D (protein) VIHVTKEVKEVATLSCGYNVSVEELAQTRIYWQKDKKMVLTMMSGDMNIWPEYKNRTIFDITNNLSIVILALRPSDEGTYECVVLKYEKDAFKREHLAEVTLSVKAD
Value type: Fold Increase over WT CD80-IgV-Fe
Observed measurement: 5.0

Please look at the following molecule next.
# query: Fold Increase over WT CD80-IgV-Fe of entry E35D/D46E/L85M (protein) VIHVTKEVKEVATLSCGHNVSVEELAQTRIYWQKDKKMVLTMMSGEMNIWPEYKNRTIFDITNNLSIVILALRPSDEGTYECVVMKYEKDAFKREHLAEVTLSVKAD 3.5
